Tested on: UO-31 renal
Experiment: NCI-60 one-dose screen, 48 h (100 = growth as untreated, 0 = no growth, -100 = all killed)
Conditions: 10 µM unless noted
The panel holds about 83,000 compounds, 20% with a hit somewhere; the sample as a whole holds those more often.
Doc: threshold 70% (exclusive). Items with growth beneath it return Fulfilled; others return Not fulfilled.

These recorded examples may help you get a feel for the data.
Cc1cccc(C)c1NCc1nnc(-c2ccco2)o1 | Fulfilled
O=C(CCCCCCCCC(=O)Nc1cccc(C2=NCCN2)c1)Nc1cccc(C2=NCCN2)c1 | Not fulfilled
CSc1nc(-c2ccco2)c2c(N)[nH]nc2n1 | Not fulfilled

INPUT: Lab note: confirm whether the reported growth for this compound is below 70%, equality not counting. compound: `Cc1ccc2nc3nc4ccc[nH]c4cc3c2c1`
OUTPUT: Fulfilled

INPUT: Lab note: confirm whether the reported growth for this compound is below 70%, equality not counting. compound: `CC[C@]12C=CCN3CC[C@@]4(c5cc(NC(=O)CCC(=O)O[C@H]6CC[C@H]7[C@@H]8CC[C@H]9CC(=O)CC[C@]9(C)[C@H]8CC[C@]67C)c(OC)cc5N(C)[C@H]4[C@@](O)(C(=O)OC)[C@@H]1OC(C)=O)[C@@H]32`
OUTPUT: Fulfilled

INPUT: Lab note: confirm whether the reported growth for this compound is below 70%, equality not counting. compound: CCCCC(=O)Nc1c(C(=O)Nc2ccccc2)sc2nc3c(cc12)C(OC(=O)CCCC)CCC3 (centres undefined)
OUTPUT: Not fulfilled

INPUT: Lab note: confirm whether the reported growth for this compound is below 70%, equality not counting. compound: `O=C(CCc1nnc2sc(OCc3ccccc3)nn12)c1nc2ccc([N+](=O)[O-])cc2[nH]1`
OUTPUT: Fulfilled

INPUT: Lab note: confirm whether the reported growth for this compound is below 70%, equality not counting. compound: FC(F)(F)c1ccc2c(Nc3cccc(C4CC(c5ccccc5)=NN4c4ccc(Cl)cc4)c3)ccnc2c1 (centres undefined)
OUTPUT: Fulfilled
